Ref: patent US20180030149A1

target: T1, recombinant human ErbB3 monomeric protein (cleaved rhErbB3) (human, UniProt P21860 20-643, limits assumed); assay: SPR Biacore 37 C; supernatant antibody captured on anti-human Fc, cleaved rhErbB3 injected
T1 construct: Monomer made by protease cleavage of the Fc fusion; also called Monomeric ErbB3
Some binders, each annotated with its measured kon.

Binder	Reported result
Sh24C05-37 (antibody, human IgG1, kappa, V domains shown, Humanized, human IgG1/kappa) VH: QVQLVESGGGLVKPGGSLRLSCAASGFTFSDYAMSWIRQAPGKGLEWVSTISDGGTYTYYPDNVKGRFTISRDNAKNSLYLQMNSLRAEDTAVYYCAREWGDYDGFDYWGQGTLVTVSS VL: DIQMTQSPSSLSASVGDRVTITCRASQEISGYLSWYQQKPGKAPKLLIYAASTLDSGVPSRFSGSGSGTDFTFTISSLQPEDIATYYCLQYDSYPYTFGQGTKLEIKR	5.94e+06 M⁻¹ s⁻¹

Then there is this binder:
// kon lookup, binder = Sh24C05-23 (antibody, human IgG1, kappa, V domains shown, Humanized, human IgG1/kappa) VH: QVQLVESGGGVVQPGRSLRLSCAASGFTFSDYAMSWVRQAPGKGLEWVATISDGGTYTYYPDNVKGRFTISRDNSKNTLYLQMSSLRAEDTAVYYCAREWGDYDGFDYWGQGTLVTVSS VL: DIQMTQSPSSLSASVGDRVTITCRASQEISGYLSWFQQKPGKAPKSLIYAASTLDSGVPSRFSGSGSGTDFTLTISSLQPEDFATYYCLQYDSYPYTFGQGTKLEIKR , result: 2.79e+06 M⁻¹ s⁻¹
